target: alpha-synuclein (aSyn) WT (human, UniProt P37840 1-140); assay: SPR
METRIC: pKd
# log scale: pKd equals minus log10 of the concentration in mol/L

Briefly, pKd measured for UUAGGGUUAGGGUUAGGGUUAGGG (structured_RNA) [G4tr biotin] : 5.44
